- Tested on: S. aureus DSM2569
- test: MIC, standard microdilution assay, growing S. aureus
- Assay type: cell-based, Staphylococcus aureus
- condition.details: S. aureus; CA-MHB pH 7.4; read-out: MIC (μM) CA-MHB
- Protocol: Minimal inhibitory concentrations (MICs) were determined using a standard microdilution assay protocol. CA-MHB medium buffered with 40 mM HEPES (pH 7.4) was used to determine the MICs for UPEC, P. aeruginosa, and S. aureus. […] MICs for UPEC were also determined in LPM buffered with 30 mM MES (pH 5.5). For S. flexneri, MICs were determined in tryptic soy broth (TSB). The assay was performed in triplicates.
# MIC per record follows

molecule	MIC
N[C@@H]1CN(c2c(F)cc3c(=O)c(C(=O)O)cn([C@@H]4C[C@@H]4F)c3c2Cl)CC12CC2 [Sitafloxacin]	0.125 µM
CO[C@H]1/C=C/O[C@@]2(C)Oc3c(C)c(O)c4c(O)c(c(/C=N/N=C/N5CCCCC5)c(O)c4c3C2=O)NC(=O)/C(C)=C\C=C\[C@H](C)[C@H](O)[C@@H](C)[C@@H](O)[C@@H](C)[C@H](OC(C)=O)[C@@H]1C [FCE-22250]	0.0125 µM
N#Cc1c(N2C[C@@H]3NCCO[C@H]3C2)c(F)cc2c(=O)c(C(=O)O)cn(C3CC3)c12 [Finafloxacin]	0.5 µM
CC(=O)[O][Pt]([NH2])([Cl])([Cl])([NH]C1CCCCC1)[O]C(C)=O [Satraplatin]	80 µM
